Tested on: HCT-116 colon
Test name: NCI-60 one-dose screen, 48 h (100 = growth as untreated, 0 = no growth, -100 = all killed)
Details: 10 µM unless noted
The panel holds about 83,000 compounds, 20% with a hit somewhere; the sample as a whole holds those more often. Calls of active or inactive are those of the source. How the source made its calls: active means growth percent below 10; inactive means the rest.

{"Compound": "O=C1Nc2c(ccc(Cl)c2Cl)/C1=C\\c1ccc(C(F)(F)F)cc1", "System name": "HCT-116 colon", "growth": "68.2% (inactive)"}
{"Compound": "C#CCOc1ccc2ncnc(N3CCN(C(=O)CCl)CC3)c2c1", "System name": "HCT-116 colon", "growth": "27.7% [8.25 µM] (inactive)"}
{"Compound": "COc1ccc(-c2nc3cc(C(=O)Nc4cc(OC)c(OC)c(OC)c4)ccc3n2C2CCCCC2)cc1", "System name": "HCT-116 colon", "growth": "93.5% (inactive)"}
{"Compound": "O=[N+]([O-])c1cnc(N2CCN(CC3CC3)CC2)nc1N1CCN(CC2CC2)CC1", "System name": "HCT-116 colon", "growth": "86% (inactive)"}
{"Compound": "COc1ccc(/C=C(\\C#N)C(=O)Nc2cccc(Nc3nc(SC)nc(-c4cccc([N+](=O)[O-])c4)c3C#N)c2)cc1OC", "System name": "HCT-116 colon", "growth": "92.6% (inactive)"}
{"Compound": "Cc1ccc2oc(=O)cc(C3c4ccc([nH]4)C(c4cc(=O)oc5ccc(C)cc45)c4ccc([nH]4)C(c4cc(=O)oc5ccc(C)cc45)c4ccc([nH]4)C(c4cc(=O)oc5ccc(C)cc45)c4ccc3[nH]4)c2c1 (stereo unspecified)", "System name": "HCT-116 colon", "growth": "-78.9% (active)"}
{"Compound": "CC(=O)c1cc2c(N)c(C(=O)Nc3cccc4ccccc34)sc2nc1C", "System name": "HCT-116 colon", "growth": "29.3% (inactive)"}
{"Compound": "O=C1C=C(OCC=C(Cl)Cl)C(=O)c2ccccc21", "System name": "HCT-116 colon", "growth": "21.8% (inactive)"}
{"Compound": "COc1ccc(C2CC(c3ccc4ccccc4c3)=NN2/C=C2\\SC(=S)N(NC(=O)Cc3ccccc3Nc3c(Cl)cccc3Cl)C2=O)cc1 (stereo unspecified)", "System name": "HCT-116 colon", "growth": "18.6% (inactive)"}
{"Compound": "C=C(C)[C@@H]1CC[C@]2(C(=O)OC)CC[C@]3(C)[C@H](CC[C@@H]4[C@@]5(C)C/C(=C/c6ccc(OC)cc6)C(=O)C(C)(C)[C@@H]5CC[C@]43C)[C@@H]12", "System name": "HCT-116 colon", "growth": "41.8% (inactive)"}
{"Compound": "COc1ccc(-c2cc(Nc3ccnc(N4CCOCC4)n3)on2)cc1", "System name": "HCT-116 colon", "growth": "12.7% (inactive)"}

###

System: SK-MEL-5 melanoma
Test name: NCI-60 one-dose screen, 48 h
Details: 10 µM unless noted
About 83,000 compounds went through this panel and 20% of them were active in at least one assay; those are over-represented in the sample as a whole. Calls of active or inactive are those of the source. Rule for the calls: active = growth percent below 10; inactive = the rest.
Outcome codes: 1 (yes) = active, 0 (no) = inactive

{"Molecule": "CCOC(=O)n1cc(-c2nonc2-c2cn(C)c3ncccc23)c2cc(F)ccc21", "Class": "0 (no)"}
{"Molecule": "CC1(C)CC[C@]2(C(=O)Nc3ccccn3)CC[C@]3(C)C(=CC[C@@H]4[C@@]5(C)C/C(=C/c6cccnc6)C(=O)C(C)(C)[C@@H]5CC[C@]43C)[C@H]2C1", "Class": "1 (yes)"}
{"Molecule": "CN(C)CCCNc1c2ccccc2nc2ccccc12", "Class": "0 (no)"}
{"Molecule": "Cn1cc(C(=O)c2nc(-c3c[nH]c4ccc(F)cc34)no2)c2cc(F)ccc21", "Class": "0 (no)"}
{"Molecule": "COC(=O)[C@@H]1CCCN1C(=O)[C@@H]1CCCN1C(=O)[C@H](Cc1ccccc1)NC(=S)Nc1cc(C(F)(F)F)cc(C(F)(F)F)c1", "Class": "0 (no)"}
{"Molecule": "COc1ccc(C2CC(c3ccc4ccccc4c3)=NN2/C=C2\\SC(=S)N(NC(=O)Cc3ccccc3Nc3c(Cl)cccc3Cl)C2=O)cc1 (stereo not drawn)", "Class": "0 (no)"}
{"Molecule": "O=C(/C=C/c1ccccc1)c1ccc(O)c(CN2CCN(c3cc4c(cc3F)c(=O)c(C(=O)O)cn4C3CC3)CC2)c1", "Class": "1 (yes)"}
{"Molecule": "O=C1/C(=C/C(Cl)=C/c2ccccc2)SC(=S)N1CCc1ccc(O)cc1", "Class": "1 (yes)"}
